target: BRD9 bromodomain (Homo sapiens (Human)); assay: BRD9 bromodomain TR-FRET competition binding assay
Sequence (Q9H8M2 133-239): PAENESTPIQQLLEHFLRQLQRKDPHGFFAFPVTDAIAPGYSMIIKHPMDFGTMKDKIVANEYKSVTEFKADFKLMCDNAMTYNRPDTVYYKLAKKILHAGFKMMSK
reported_endpoint: IC50

In the examples that follow, each entry is paired with its recorded IC50.
>>> value_measured("COc1cc(-c2cn(C)c(=O)c3c2CCN(C(=O)NCCOCCNc2cccc4c2C(=O)N(C2CCC(=O)NC2=O)C4=O)C3)cc(OC)c1CN(C)C (stereo not drawn)")
"> 0.01 µM"
>>> value_measured("CNC(=O)N1CCc2c(-c3cc(OC)c(CN(C)C)c(OC)c3)cn(C)c(=O)c2C1")
"< 0.01 µM"

For the next question, use this compound.
Which value of IC50 has been reported for COc1cc(-c2cn(C)c(=O)c3c2CCN(C)C3)cc(OC)c1CN(C)C in the records?
> 1 µM
